Listed here are compounds together with their documented EC50.
Assayed system: hGPR120 (Homo sapiens)
Construct: expressed in transfected cells; host or cells: CHO-K1
Sequence (Q5NUL3 whole entry): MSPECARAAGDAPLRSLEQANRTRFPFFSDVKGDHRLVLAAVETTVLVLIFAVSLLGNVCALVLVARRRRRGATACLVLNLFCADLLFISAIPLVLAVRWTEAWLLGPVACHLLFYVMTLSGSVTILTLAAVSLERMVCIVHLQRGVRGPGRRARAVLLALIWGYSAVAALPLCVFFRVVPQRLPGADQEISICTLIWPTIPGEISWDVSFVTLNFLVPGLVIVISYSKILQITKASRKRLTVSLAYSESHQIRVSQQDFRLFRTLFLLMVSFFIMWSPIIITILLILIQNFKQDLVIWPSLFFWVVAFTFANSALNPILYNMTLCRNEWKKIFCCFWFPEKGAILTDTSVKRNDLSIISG
Method description: Measurement of Activity of GPR120 Agonist (Cell-Based Assay), Calcium 5 dye fluorescence
Test conditions: CHO-K1 cells expressing Ga16 and hGPR120

# Compound, Assayed system, EC50
records = [
    ("COc1ccc(-c2cc(F)c(N3CCC(CC(=O)O)CC3)c(F)c2)nc1OC1CCC1 [Example 457]", "hGPR120 (Homo sapiens)", "200 to 2000 nM"),
    ("O=C(O)CCC1CCc2cc(-c3cccnc3SC3CCC3)ccc2S1 (stereo not drawn) [Example 275]", "hGPR120 (Homo sapiens)", "< 200 nM"),
    ("O=C(O)COCC(F)(F)c1ccc(-c2cccc(OC3CCC3)n2)cc1 [Example 174]", "hGPR120 (Homo sapiens)", "200 to 2000 nM"),
    ("COC(=O)N1c2c(cc(F)cc2-c2cc(F)c(OCCCC(=O)O)c(F)c2)CC1(C)C [Example 265]", "hGPR120 (Homo sapiens)", "200 to 2000 nM"),
    ("O=C(O)CCCOc1c(F)cc(-c2sccc2COCC2CC2)cc1F [Example 574]", "hGPR120 (Homo sapiens)", "< 200 nM"),
    ("CCOc1cc(C)nc(-c2cc(F)c(N3CCC(CC(=O)O)C3)c(F)c2)n1 (stereo not drawn) [Example 590]", "hGPR120 (Homo sapiens)", "< 200 nM"),
    ("O=C(O)COc1ccc2cc(-c3cccc(OC4CCCC4)n3)ccc2c1 [Example 3]", "hGPR120 (Homo sapiens)", "200 to 2000 nM"),
    ("O=C(O)CCC1CC1c1c(F)cc(-c2cccc3c2OC2(CCCC2)C3)cc1F (stereo not drawn) [Example 443]", "hGPR120 (Homo sapiens)", "200 to 2000 nM"),
    ("CC(C)Sc1ncccc1-c1cc(F)c(OCc2cc(O)no2)c(F)c1 [Example 68]", "hGPR120 (Homo sapiens)", "< 200 nM"),
]
